- Measured on: Prostaglandin G/H synthase 1 (Homo sapiens, UniProt P23219)
- Sequence (P23219 whole entry): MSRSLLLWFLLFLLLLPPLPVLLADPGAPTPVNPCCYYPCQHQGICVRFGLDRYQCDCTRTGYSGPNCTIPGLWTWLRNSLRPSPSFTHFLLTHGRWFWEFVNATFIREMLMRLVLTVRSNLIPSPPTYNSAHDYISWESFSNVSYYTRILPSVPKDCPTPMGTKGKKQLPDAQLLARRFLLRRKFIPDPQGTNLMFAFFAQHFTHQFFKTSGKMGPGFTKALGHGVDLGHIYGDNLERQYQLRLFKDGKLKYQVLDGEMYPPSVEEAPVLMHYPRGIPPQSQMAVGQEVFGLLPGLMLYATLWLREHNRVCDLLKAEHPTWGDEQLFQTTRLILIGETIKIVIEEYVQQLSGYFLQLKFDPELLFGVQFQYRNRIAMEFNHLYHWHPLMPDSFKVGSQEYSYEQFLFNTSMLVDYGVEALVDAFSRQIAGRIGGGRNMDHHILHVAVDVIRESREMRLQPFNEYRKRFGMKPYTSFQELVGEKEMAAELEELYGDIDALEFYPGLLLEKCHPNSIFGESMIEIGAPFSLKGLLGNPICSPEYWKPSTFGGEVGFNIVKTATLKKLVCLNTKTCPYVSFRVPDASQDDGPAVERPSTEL
- Type: tissue-based, Blood
- Description: Inhibition of COX1 in human whole blood assessed as inhibition of 12-hydroxyheptadecatrienoic acid production by HPLC method
Experimental readout: IC50
Kindly format the answer as number then unit.

- Molecule: "COC1(c2cc(F)cc(OCCCN3CCc4c(c5cc(S(C)(=O)=O)ccc5n4C(=O)c4ccccc4)C3)c2)CCOCC1"
  Measured on: "Prostaglandin G/H synthase 1 (Homo sapiens, UniProt P23219)"
  IC50: "24 µM"
- Molecule: "COC1(c2cc(F)cc(OCCCN3CCc4c(c5cc(F)ccc5n4Cc4ccc(S(C)(=O)=O)cc4)C3)c2)CCOCC1"
  Measured on: "Prostaglandin G/H synthase 1 (Homo sapiens, UniProt P23219)"
  IC50: "180 µM"
- Molecule: "COc1ccc2c(c1)c1c(n2C(=O)c2ccc(Br)cc2)CCN(CCCOc2cc(F)cc(C3(OC)CCOCC3)c2)C1"
  Measured on: "Prostaglandin G/H synthase 1 (Homo sapiens, UniProt P23219)"
  IC50: "16.5 µM"

Switching to the query record.
Inquiry: Consider the molecule `CS(=O)(=O)c1ccc2c(c1)c1c(n2C(=O)c2ccccc2)CCNC1` . State its measured IC50.
Reply text: 24.4 µM

Cited source: ChEMBL document CHEMBL1165918
